pIC50: −log10 of the molar value.
Observed pIC50 for Maltase-glucoamylase (Homo sapiens, UniProt O43451), reported per entry below.
ASSAY_READOUT: pIC50

-- ask Under Maltase-glucoamylase (Homo sapiens, UniProt O43451): report pIC50 of C=CCc1cc(-c2cc(CC=C)c(O)c(C(c3ccc(Cl)cc3)N3CCOCC3)c2)c(O)c(C(c2ccc(Cl)cc2)N2CCOCC2)c1 (stereo not drawn) .
-- reply 4.73

A: C=CCc1cc(-c2ccc(O)c(CC=C)c2)c(O)c(C(c2ccc(OC)cc2)N2CCCCC2)c1 (stereo not drawn)
B: C=CCc1cc(-c2ccc(O)c(CC=C)c2)c(O)c(C(c2cc(Cl)cc(Cl)c2)N2CCC(C)CC2)c1 (stereo not drawn)
-- ask From the items above, decide which of A and B has the lower pIC50 reading. Mark your answer with the label of the selected entry.
-- reply A
